# Experiment notes: chemical genetic growth profiling, strain panel (AID 1159580);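 further: tested at 20 µM; growth read once vehicle control cultures reached saturation at 30 °C; 1 = growth at the plate median or of vehicle wells; lower values mean less growth of the strain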
# Experimental parameters: S. cerevisiae deletion strains, growth OD, locus YMR307W, strain GAS1
The campaign covered roughly 5,500 compounds. About 2,000 (36%) were called active. Inconclusive results (about 18%) are left out. No stated cut-off is given here; in the data, active means normalized growth mostly below about 0.91 (no sharp cut-off); inconclusive means no clear call, values can overlap the other calls; inactive means mostly above about 0.92. Some of the results follow.
Classes used: active, inactive

NC(Cc1ccc(Cl)cc1)C(=O)O (stereo unspecified): inactive
O=C(/C=C/c1ccccc1)c1ccc(O[C@@H]2O[C@H](CO)[C@@H](O)[C@H](O)[C@H]2O)cc1O: inactive
CC(C)c1cc2c(c(O)c1O)[C@@]1(C(=O)O)CCCC(C)(C)C1CC2 (stereo partly specified): active
CCCc1ccc(/C(C)=N\O)cc1: inactive
C/C(=N/O)c1ccc2c(c1)C(C)(C)CCC2(C)C: inactive
COc1cc2c(cc1OC)C(C)NCC2 (stereo unspecified): inactive
COc1cc(O)c2c(c1)C(=O)c1cc(C)cc(O)c1C2=O: inactive
O=C(/C=C/c1ccccc1)c1c(O)cc(O)cc1O: inactive
N#CCC(=O)N(Cc1ccccc1F)C(=O)NC1CCCCC1: inactive
OC[C@H]1O[C@@H](Oc2ccc(O)cc2)[C@H](O)[C@@H](O)[C@@H]1O: inactive
COc1ccc(/C=C/c2cc(O)cc(O[C@@H]3O[C@H](CO)[C@@H](O)[C@H](O)[C@H]3O)c2)cc1: inactive

====

# Experiment notes: chemical genetic growth profiling, strain panel (AID 1159580);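 further: tested at 20 µM; growth read once vehicle control cultures reached saturation at 30 °C; 1 = growth at the plate median or of vehicle wells; lower values mean less growth of the strain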
# Experimental parameters: S. cerevisiae deletion strains, growth OD, locus YMR001C, strain CDC5, active compounds read low
Hit rate of the full screen: of about 5,500 compounds, about 2,000 (36%) were called active. Inconclusive results (about 18%) are left out. This is one part of the list.
Endpoint name: normalized growth

CC(C)Sc1c(Cl)cccc1NC(=O)Nc1cccc(C(F)(F)F)c1: 0.977
CCOC(=O)c1ccc(N=Cc2cc(Cl)cc(Cl)c2O)cc1: 0.943
CCOC(=O)C(NC(=O)c1cccc(Cl)c1)(Nc1nc2ccccc2s1)C(F)(F)F (stereo unspecified): 0.967
CCOC(=O)C(O)(c1ccc(NC(=O)c2ccc(Cl)c(Cl)c2)cc1)C(F)(F)F (stereo unspecified): 0.997
S=C(NCc1cccs1)Nc1cc(Cl)cc(Cl)c1: 0.941
Cc1cc(N=Cc2cc(Cl)cc(Cl)c2O)no1: 0.963
O=C(Nc1ccc(F)cc1F)c1cc(Cl)ccc1O: 0.94
O=[N+]([O-])c1ccc(Sc2ccccc2)cc1O: 0.919
O=C(NCc1ccc2c(c1)OCO2)c1cc2ccccc2s1: 0.837
COC(=S)Nc1cc(Cl)cc(Cl)c1: 0.935
CC1SC(c2cccnc2)N(c2ccc(Cl)cc2)C1=O (stereo unspecified): 0.936
CC(=O)c1ccc(Sc2ccccc2)c([N+](=O)[O-])c1: 0.858
S=C(NCCc1csc2ccccc12)Nc1ccc(Cl)cc1: 0.946
Cc1csc2ncnc(N3CCN(C(=S)Nc4ccc(C(F)(F)F)cc4)CC3)c12: 0.999
COc1cc(C2CC(=S)Nc3ccccc3S2)cc(OC)c1OC (stereo unspecified): 0.993
Cc1cc(Sc2c([N+](=O)[O-])cc(C(F)(F)F)cc2[N+](=O)[O-])c(Cl)cc1Cl: 1
Cc1csc2ncnc(N3CCN(C(=O)Nc4ccc(SC(F)(F)F)cc4)CC3)c12: 0.999
CC1SC(c2cccnc2)N(c2ccc(F)cc2F)C1=O (stereo unspecified): 0.984
NNC(=O)c1oc2nc(-c3ccccc3)cc(-c3ccccc3)c2c1N: 0.988
Cc1csc2c(N3CCN(C(=S)Nc4ccc(C(F)(F)F)cc4)CC3)ncnc12: 1
O=C(Nc1cc(Cl)cc(Cl)c1)c1cc(Br)ccc1O: 0.941
COC(=O)c1sccc1S(=O)(=O)Nc1cc(C(F)(F)F)cc(C(F)(F)F)c1: 0.972
O=C(OCCNc1ccc([N+](=O)[O-])cn1)c1ccc([N+](=O)[O-])o1: 0.915
O=[N+]([O-])c1ccc(NCc2ccc(Cl)c(Cl)c2)nc1: 0.938
N#CC(C(=O)Nc1cccc(C(F)(F)F)c1)C(=S)Nc1ccccc1Cl (stereo unspecified): 0.995
Cc1cc2nc3c(Cl)c(O)c4ccccc4c3nc2cc1C: 0.959
O=C(Nc1cc(Cl)cc(Cl)c1)c1cc(Cl)ccc1O: 0.93
Cc1ccc2nc3c(nc2c1)-c1ccccc1C3=O: 0.908
Cc1cc(C)c2cc(C(=O)NCCNc3ccc(C(F)(F)F)cn3)[nH]c2c1: 0.986
FC(F)(F)c1ccncc1-c1nc(-c2ccc(Cl)cc2)cs1: 0.986
CC(C)OC(=O)Nc1cc(Cl)cc(Cl)c1: 0.985

====

# Experiment notes: chemical genetic growth profiling, strain panel (AID 1159580);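 further: tested at 20 µM; growth read once vehicle control cultures reached saturation at 30 °C; 1 = growth at the plate median or of vehicle wells; lower values mean less growth of the strain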
# Experimental parameters: S. cerevisiae deletion strains, growth OD, locus YNL207W, strain RIO2
Hit rate of the full screen: of about 5,500 compounds, about 2,000 (36%) were called active. Another 18% or so got no clear call; they are omitted. No stated cut-off is given here; in the data, active means normalized growth mostly below about 0.91 (no sharp cut-off); inconclusive means no clear call, values can overlap the other calls; inactive means mostly above about 0.92. This is one part of the list.
Classes used: active, inactive

NNC(=O)c1oc2nc(-c3ccccc3)cc(-c3ccccc3)c2c1N: inactive
O=[N+]([O-])c1ccc(Sc2ccccc2)cc1O: inactive
COC(=O)c1cc([N+](=O)[O-])ccc1S(=O)(=O)Cc1ccc(Cl)cc1: inactive
Cc1cc(C)c2cc(C(=O)NCCNc3ccc(C(F)(F)F)cn3)[nH]c2c1: inactive
Cc1cc(N=Cc2cc(Cl)cc(Cl)c2O)no1: inactive
COC(=O)c1cc(I)c(OC(C)=O)c(I)c1: inactive
COC(=O)c1cccc(NS(=O)(=O)c2ccc(Cl)c(Cl)c2)c1: inactive
Cn1cc(Br)c(-c2cccc(NS(=O)(=O)c3ccc(Cl)cc3)c2)n1: inactive
Cc1cc2nc3c(Cl)c(O)c4ccccc4c3nc2cc1C: inactive
CCOC(=O)c1cnc(-c2ccccn2)[nH]c1=O: inactive
O=C(Nc1ccc(F)cc1F)c1cc(Cl)ccc1O: inactive
O=S(=O)(Nc1c(F)cccc1F)c1ccc(Cl)c(Cl)c1: inactive
O=C(Nc1ccccc1Sc1ccc(C(F)(F)F)cc1[N+](=O)[O-])C(Cl)Cl: inactive
CC(C)(C)c1ccc(-c2cc(NC(=O)c3ccc(Cl)cc3)n[nH]2)cc1: inactive
O=[N+]([O-])c1ccc(Sc2ccccc2)c([N+](=O)[O-])c1: active
Cc1csc2ncnc(N3CCN(C(=S)Nc4ccc(C(F)(F)F)cc4)CC3)c12: inactive
Cc1cc(Sc2c([N+](=O)[O-])cc(C(F)(F)F)cc2[N+](=O)[O-])c(Cl)cc1Cl: inactive
CC(=O)c1ccc(Sc2ccccc2)c([N+](=O)[O-])c1: active
CC1SC(c2cccnc2)N(c2ccc(Cl)cc2)C1=O (centres undefined): inactive

====

# Experiment notes: chemical genetic growth profiling, strain panel (AID 1159580);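 further: tested at 20 µM; growth read once vehicle control cultures reached saturation at 30 °C; 1 = growth at the plate median or of vehicle wells; lower values mean less growth of the strain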
# Experimental parameters: S. cerevisiae deletion strains, growth OD, locus YAR019C, strain CDC15, active compounds read low
About 2,000 (36%) of roughly 5,500 compounds were called active. Another 18% or so got no clear call; they are omitted. The list shows a part of the results.
Some compounds, each annotated with its measured normalized growth.
Endpoint name: normalized growth

O=[N+]([O-])c1ccc(Sc2ccccc2)cc1O: 0.915
O=[N+]([O-])c1cc(C(F)(F)F)ccc1Sc1n[nH]c(-c2cc(Cl)cc(Cl)c2)n1: 0.925
COc1ccc(Oc2ccc([N+](=O)[O-])cc2C(=O)O/N=C(/N)c2ccc(C(F)(F)F)cc2)cc1: 1
O=C(Nc1cc(Cl)cc(Cl)c1)c1cc(Br)ccc1O: 0.944
Cn1ncc(-c2nc(-c3ccc(Cl)cc3)cs2)c1N: 0.933
CC(C)Sc1c(Cl)cccc1NC(=O)Nc1cccc(C(F)(F)F)c1: 0.981
Cc1ccc2nc3c(nc2c1)-c1ccccc1C3=O: 0.916
FC(F)(F)c1ccncc1-c1nc(-c2ccc(Cl)cc2)cs1: 0.982
COC(=O)c1cc([N+](=O)[O-])ccc1S(=O)(=O)Cc1ccc(Cl)cc1: 0.971
N#CC(C(=O)Nc1cccc(C(F)(F)F)c1)C(=S)Nc1ccccc1Cl (stereo not drawn): 0.992
FC(F)(F)c1c2c(nc3cc(-c4ccco4)nn13)CCC2: 0.965
O=[N+]([O-])c1ccc(Sc2ccccc2)c([N+](=O)[O-])c1: 0.862
COc1ccc(OC)c2nc3c(nc12)C(=O)c1ccccc1-3: 0.97
O=C(Nc1ccc(F)cc1F)c1cc(Cl)ccc1O: 0.935
COC(=O)c1sccc1S(=O)(=O)Nc1cc(C(F)(F)F)cc(C(F)(F)F)c1: 0.973
O=[N+]([O-])c1ccc(NCc2ccc(Cl)c(Cl)c2)nc1: 0.931
CCOC(=O)c1ccc(N=Cc2cc(Cl)cc(Cl)c2O)cc1: 0.934
O=C(Nc1ccc(F)cc1)c1cc(Br)ccc1O: 0.91
Cc1cc(Sc2c([N+](=O)[O-])cc(C(F)(F)F)cc2[N+](=O)[O-])c(Cl)cc1Cl: 0.995
CCOC(=O)C(NC(=O)c1cccc(Cl)c1)(Nc1nc2ccccc2s1)C(F)(F)F (stereo not drawn): 0.967
O=C(Nc1ccccc1Sc1ccc(C(F)(F)F)cc1[N+](=O)[O-])C(Cl)Cl: 0.997
COc1cc(C2CC(=S)Nc3ccccc3S2)cc(OC)c1OC (stereo not drawn): 0.99
O=C(OCCNc1ccc([N+](=O)[O-])cn1)c1ccc([N+](=O)[O-])o1: 0.898
